# target.system: c-Kit(V654A) (Homo sapiens, UniProt P10721, V654A)
# Construct: amino acids 544-end containing the V654A mutation; GST (N)
# Sequence (P10721 544-976 V654A): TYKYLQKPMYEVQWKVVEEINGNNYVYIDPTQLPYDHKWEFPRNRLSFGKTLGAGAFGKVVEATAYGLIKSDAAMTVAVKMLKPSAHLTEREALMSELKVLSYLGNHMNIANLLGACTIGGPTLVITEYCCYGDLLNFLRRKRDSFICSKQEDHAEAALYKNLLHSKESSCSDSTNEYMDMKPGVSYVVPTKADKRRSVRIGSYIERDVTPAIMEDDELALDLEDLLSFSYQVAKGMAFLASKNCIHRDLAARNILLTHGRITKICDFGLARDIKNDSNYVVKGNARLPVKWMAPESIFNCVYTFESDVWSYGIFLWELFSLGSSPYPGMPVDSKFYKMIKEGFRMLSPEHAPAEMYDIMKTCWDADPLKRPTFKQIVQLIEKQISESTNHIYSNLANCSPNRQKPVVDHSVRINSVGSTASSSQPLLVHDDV
# procedure.details: c-Kit(V654A) assay
# test.conditions: recombinant human c-Kit aa 544-end, 200 μM ATP, 1.4E-06 means 1.4×10^−6, read-out: Inhibition (IC50) of c-KIT (V654A)
quantity.name: IC50 (nM)

Cc1ccc2cc(-c3cn(-c4ccc(C(=O)N5CCOCC5)cc4)nn3)c(=O)[nH]c2n1 [A30] ... 2200

(a) O=C(c1ccc(-n2cc(-c3cc4cc(F)ccc4[nH]c3=O)nn2)cc1)N1CCC[C@@H]1CN1CCCC1 [A278]
(b) CN1CCN(C(=O)c2ccc(-n3cc(-c4cc5ccc(C(F)(F)F)cc5[nH]c4=O)nn3)cc2)CC1 [A170]
Query: Consider a and b . Which of these has its IC50 at a higher number? Refer to your chosen entry by its label in the reply.
Reply: b
(b: 1800 nM, a: 17 nM)

(a) O=C(c1ccc(-n2cc(-c3cc4cc(F)ccc4[nH]c3=O)nn2)cc1)N1CCC2(CCOC2)C1 (centres unmarked) [A204]
(b) O=C(c1ccc(-n2cc(-c3cc4ccccc4[nH]c3=O)nn2)cc1)N1CCNCC1 [A50]
(c) CN1C[C@@H]2CN(C(=O)c3ccc(-n4cc(-c5cc6cc(F)ccc6[nH]c5=O)nn4)cc3)C[C@@H]2C1 [A327]
(d) CN1CCN(c2ncc(-n3cc(-c4cc5ccccc5[nH]c4=O)nn3)cn2)CC1 [A66]
Query: Rank order required: IC50, descending. Output spec: a listing of the labels in the requested order.
Reply: d, a, b, c
(d: 640 nM, a: 55 nM, b: 24 nM, c: 14 nM)

---

# target.system: PDGFRalpha(V561D) (Homo sapiens, UniProt P16234, V561D)
# Construct: recombinant human PDGFRalpha, amino acids 550end containing the V561 D mutation; 6His (N)
# Sequence (P16234 550-1089 V561D): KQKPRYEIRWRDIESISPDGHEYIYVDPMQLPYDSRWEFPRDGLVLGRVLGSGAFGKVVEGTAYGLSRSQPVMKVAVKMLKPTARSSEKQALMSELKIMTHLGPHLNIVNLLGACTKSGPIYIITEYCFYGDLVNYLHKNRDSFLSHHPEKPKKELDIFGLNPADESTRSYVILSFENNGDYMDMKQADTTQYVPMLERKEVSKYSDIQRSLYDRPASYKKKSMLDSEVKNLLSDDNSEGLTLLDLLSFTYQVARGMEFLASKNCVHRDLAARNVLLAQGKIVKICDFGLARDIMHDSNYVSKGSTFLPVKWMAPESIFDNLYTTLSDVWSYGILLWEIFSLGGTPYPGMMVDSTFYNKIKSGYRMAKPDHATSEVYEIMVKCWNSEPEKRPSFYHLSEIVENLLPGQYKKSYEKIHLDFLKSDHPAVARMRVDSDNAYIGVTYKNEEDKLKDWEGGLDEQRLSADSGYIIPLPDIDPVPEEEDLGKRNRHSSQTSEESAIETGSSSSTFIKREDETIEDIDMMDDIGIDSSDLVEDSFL
# procedure.details: PDGFRalpha(V561D) assay
# test.conditions: recombinant human PDGFRalpha aa 550-end, 200 μM ATP, 1.4E-06 means 1.4×10^−6, read-out: Inhibition (IC50) of PDGFRα (V561D)
quantity.name: IC50 (nM)

Answered examples (6):
CC(=O)OC1CCCN(C(=O)c2ccc(-n3cc(-c4cc5cc(F)ccc5[nH]c4=O)nn3)cc2)C1 (centres unmarked) [A103] ... 35
O=c1[nH]c2ccc(F)cc2cc1-c1cn(-c2ccc(OCCCN3CCNCC3)cc2)nn1 [A131] ... 38
Cc1ccc2[nH]c(=O)c(-c3cn(-c4ccc(C(=O)N5CCNCC5)cc4)nn3)cc2c1 [A137] ... 42
O=C(c1ccc(-n2cc(-c3cc4cc(F)ccc4[nH]c3=O)nn2)cc1)N1CCCCC1CO (centres unmarked) [A214] ... 79
O=C(c1ccc(-n2cc(-c3cc4cc(F)ccc4[nH]c3=O)nn2)cc1)N1CCCC(O)C1 (centres unmarked) [A184] ... 11
O=c1[nH]c2cc(F)c(F)cc2cc1-c1cn(-c2ccc(OCCC3CCNCC3)cc2)nn1 [A134] ... 16

(1) CO[C@H]1CN(C(=O)c2ccc(-n3cc(-c4cc5cc(F)ccc5[nH]c4=O)nn3)cc2)C[C@@H]1OC [A264]
(2) Cc1cc(-n2cc(-c3cc4ccccc4[nH]c3=O)nn2)ccc1C(=O)N1CCOCC1 [A40]
(3) CN1CCN(C(=O)c2ccc(-n3cc(-c4cc5cc(F)c(F)cc5[nH]c4=O)nn3)cc2)CC1 [A157]
(4) COC1CCN(C(=O)c2ccc(-n3cc(-c4cc5cc(F)ccc5[nH]c4=O)nn3)cc2)CC1 [A190]
Query: Kindly order the items shown according to IC50, from the highest value down. The labels, placed in the requested order, form the answer.
Reply: 4, 2, 1, 3

All figures here come from patent US11939314B2.
